Values from patent US4927565A

assay_system: Human plasma renin (Homo sapiens)
Sequence (P00797 67-406): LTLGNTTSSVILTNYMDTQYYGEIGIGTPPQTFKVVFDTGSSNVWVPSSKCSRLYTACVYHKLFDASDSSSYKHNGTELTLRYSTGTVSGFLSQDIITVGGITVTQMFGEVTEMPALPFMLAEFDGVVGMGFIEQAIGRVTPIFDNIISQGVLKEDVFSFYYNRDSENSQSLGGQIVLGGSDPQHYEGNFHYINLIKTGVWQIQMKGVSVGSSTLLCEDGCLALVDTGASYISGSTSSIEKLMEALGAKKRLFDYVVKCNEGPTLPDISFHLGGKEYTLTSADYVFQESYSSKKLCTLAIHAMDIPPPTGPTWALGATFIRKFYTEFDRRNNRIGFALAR
protocol_text: Human plasma renin inhibiting activities (angiotensin I measured by radio immunoassay)
test_settings: pH7.4, 37° C., one hour, read-out: 50% inhibition concentration IC50
pIC50: −log10 of the molar value.
measurement_kind: pIC50

>>> result_value("CCCC[C@H](NC(=O)[C@H](Cc1cccc2ccccc12)NC(=O)OCc1ccccc1)C(=O)N[C@@H](CC(C)C)[C@@H](O)/C=C(/CC)C(=O)NCC(C)C")
7.17
>>> result_value("CCCC[C@H](NC(=O)[C@H](Cc1cccc2ccccc12)NC(=O)OCc1ccccc1)C(=O)N[C@@H](CC(C)C)[C@@H](O)/C=C(\\CCC)C(=O)NCC(C)C")
6.92
>>> result_value("CCCC[C@H](NC(=O)[C@H](Cc1cccc2ccccc12)NC(=O)OCc1ccccc1)C(=O)N[C@@H](CC(C)C)[C@@H](O)/C=C(\\C(=O)NCC(C)C)C(C)C")
6.59
